molecular target: T1, MC3r (human recombinant, CHO cells) (human, UniProt P41968 1-323); assay: displacement of 125I-NDP-αMSH, CHO cells expressing human MC3r (method of Example 2, not restated)
T1 construct: whole, on cells
T1 sequence (P41968 whole entry): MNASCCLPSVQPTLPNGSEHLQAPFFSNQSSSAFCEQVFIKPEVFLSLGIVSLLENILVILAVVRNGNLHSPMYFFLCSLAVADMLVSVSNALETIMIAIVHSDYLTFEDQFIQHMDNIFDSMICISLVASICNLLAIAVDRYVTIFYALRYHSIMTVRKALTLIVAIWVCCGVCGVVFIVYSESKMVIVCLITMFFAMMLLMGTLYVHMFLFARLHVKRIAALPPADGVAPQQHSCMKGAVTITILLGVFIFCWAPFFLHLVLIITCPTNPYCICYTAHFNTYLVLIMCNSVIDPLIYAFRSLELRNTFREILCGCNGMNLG
pKi: −log10 of the molar value.
Test Readout: pKi

{"columns": ["Binder", "Assay Value"],
 "data": [
  ["KYVMGHFRWDRFG (alpha-amino group of Lys1 acetylated; Ac-Lys-Lys attached to the epsilon-amino group of Lys1; D-Trp at position 9; C-terminal amide) [γ-MSH Analogue 1: Ac-(Ac-Lys-Lys)Lys-Tyr-Val-Met-Gly-His-Phe-Arg-DTrp-Asp-Arg-Phe-Gly-NH2]", 7.82]
]}
